# CONDITION_SUMMARY: buffer, pH 7.4
CHI values for the compounds below.
Give your answer as a number; write no unit.

Worked cases, CHI given:
COMPOUND | RESULT_VALUE
Cc1cccc(C)c1CNc1cc(-n2cncn2)cn2c(C)c(C)nc12 | 3.07
CCc1cccc(C)c1CNc1cc(C(N)=O)cn2c(C)c(C)nc12 | 2.52
Cc1nc2c3c(c(-n4ccccc4=O)cn2c1C)CC[C@@H](c1ccccc1)N3 | 3.35
Cc1cccc(C)c1CNc1cc(C(=O)NCCO)cn2c(C)c(C)nc12 [LINAPRAZAN] | 2.14
Cc1cccc(C)c1CNc1cc(-n2ccc(=O)cc2)cn2c(C)c(C)nc12 | 1.58

// below: CHI requested for another compound
Prompt: Supply CHI value. Item: Cc1cccc(C)c1COc1cc(-n2ccccc2=O)cn2c(C)c(C)nc12
Completion: 2.12
